- Test system: Gram-positive bacteria
- experimental-details: Geometric mean of MICs and therapeutic index, Gram (+)
- Type: cell-based
- run-conditions: geometric mean over the Gram-positive strains of Table 2; 256 μM used when no activity at 128 μM
- Experimental: The antimicrobial activity of the designed peptides was examined using the micro-dilution method described previously. The bacteria were cultured for 16 h in MHB at 37 °C, and the microbial suspension was diluted to a final concentration of 10^5 colony-forming units (CFU)/mL. Then, 50 µL of MHB containing different concentrations peptides (0.25–256 µM) was mixed with 50 µL of bacterial solution, and the mixture was added to a 96-well plate. […] The assays were performed three times.
Non-standard residues stand in square brackets, D forms with d. Residues, ends and D or L forms follow the SMILES beside them.
assay-metric: GM (geometric mean of MICs), Gram (+) (µM)

molecule	assay-metric	meas-value
N=C(N)NCCC[C@H](NC(=O)CNC(=O)[C@H]1CCCN1C(=O)[C@H](CCCNC(=N)N)NC(=O)[C@H](CCCNC(=N)N)NC(=O)[C@H](Cc1ccccc1)NC(=O)[C@H](Cc1ccccc1)NC(=O)[C@H](CCCNC(=N)N)NC(=O)[C@H](Cc1ccccc1)NC(=O)[C@@H](N)Cc1ccccc1)C(=O)N[C@@H](CCCNC(=N)N)C(=O)N[C@@H](Cc1ccccc1)C(=O)N[C@@H](Cc1ccccc1)C(=O)N[C@@H](CCCNC(=N)N)C(=O)N[C@@H](Cc1ccccc1)C(=O)N[C@@H](Cc1ccccc1)C(N)=O [FRpG] (H-FFRFFRR[dP]GRRFFRFF-NH2)	GM (geometric mean of MICs), Gram (+)	22.6
CC(C)C[C@H](NC(=O)CN)C(=O)N[C@@H](CCCNC(=N)N)C(=O)N[C@@H](CC(C)C)C(=O)N[C@@H](CC(C)C)C(=O)N[C@@H](CCCNC(=N)N)C(=O)N[C@@H](CCCNC(=N)N)C(=O)N[C@@H](CC(C)C)C(=O)N[C@@H](CC(C)C)C(=O)N[C@@H](CCCNC(=N)N)C(=O)N[C@@H](CCCNC(=N)N)C(=O)N[C@@H](CC(C)C)C(=O)N[C@@H](CC(C)C)C(=O)N[C@@H](CCCNC(=N)N)C(=O)N[C@@H](CC(C)C)C(=O)N1CCC[C@@H]1C(N)=O [LRα] (H-GLRLLRRLLRRLLRL[dP]-NH2)	GM (geometric mean of MICs), Gram (+)	8
CC[C@H](C)[C@H](N)C(=O)N[C@H](C(=O)N[C@@H](CCCNC(=N)N)C(=O)N[C@H](C(=O)N[C@H](C(=O)N[C@@H](CCCNC(=N)N)C(=O)N[C@@H](CCCNC(=N)N)C(=O)N1CCC[C@@H]1C(=O)NCC(=O)N[C@@H](CCCNC(=N)N)C(=O)N[C@@H](CCCNC(=N)N)C(=O)N[C@H](C(=O)N[C@H](C(=O)N[C@@H](CCCNC(=N)N)C(=O)N[C@H](C(=O)N[C@H](C(N)=O)[C@@H](C)CC)[C@@H](C)CC)[C@@H](C)CC)[C@@H](C)CC)[C@@H](C)CC)[C@@H](C)CC)[C@@H](C)CC [IRpG] (H-IIRIIRR[dP]GRRIIRII-NH2)	GM (geometric mean of MICs), Gram (+)	256
CC(C)C[C@H](NC(=O)[C@H](CC(C)C)NC(=O)[C@H](CCCNC(=N)N)NC(=O)[C@H](CC(C)C)NC(=O)[C@H](CC(C)C)NC(=O)[C@H](CCCNC(=N)N)NC(=O)[C@H](CCCNC(=N)N)NC(=O)CNC(=O)[C@H]1CCCN1C(=O)[C@H](CCCNC(=N)N)NC(=O)[C@H](CCCNC(=N)N)NC(=O)[C@H](CC(C)C)NC(=O)[C@H](CC(C)C)NC(=O)[C@H](CCCNC(=N)N)NC(=O)[C@H](CC(C)C)NC(=O)[C@@H](N)CC(C)C)C(N)=O [LRpG] (H-LLRLLRR[dP]GRRLLRLL-NH2)	GM (geometric mean of MICs), Gram (+)	19.0
